- Tested on: KM12
- PROTOCOL_NOTES: NCI tumour cell line growth inhibition, 48 h
Calls of active or inactive are those of the source. No stated cut-off is given here; in the data, active = GI50 up to about 1.1 µM and inactive = higher.
Outcomes: 1.0 (active), 0.0 (inactive)

INSERT INTO measurements (compound, label_value) VALUES
  ('Fc1ccc2c(c1)cc1ccc3cccc4ccc2c1c34', 0.0),
  ('O=C(Nc1ncc([N+](=O)[O-])s1)c1ccccc1O [TIZOXANIDE]', 0.0),
  ('O=C(Cc1nc2ccccc2s1)NC12CC3CC(CC(C3)C1)C2', 0.0),
  ('C/C(=N\Nc1nc2ccccc2n1C)c1cc2ccccc2cn1', 1.0),
  ('CC(=O)c1nc2ccccc2n1C(C)C(=O)c1ccccc1 (stereo not given)', 0.0),
  ('C/C=C(\N=C=S)C(=O)OC1C(COC(C)=O)OC([C@]2(O)CC(=O)C(N)=C(C(=O)O)C2=O)C(O)C1OC1CC(OC)C(O)([C@@H](C)OC(=O)[C@@H](C)CC)C(C)O1 (stereo not given in full)', 0.0),
  ('CC(=O)OCC1OC(n2c3c(cc(C#N)c2=S)CCCCC3)C(OC(C)=O)C(OC(C)=O)C1OC(C)=O (stereo not given)', 0.0),
  ('C/C(=C\C(C[C@](C)(O)C(O)CCC#C[Si](C)(C)C)S(=O)(=O)c1ccccc1)CC/C=C/CO[Si](C)(C)C(C)(C)C (stereo not given in full)', 0.0),
  ('CN(C)CCCNc1ccc2c(=O)n(CCN(C)C)c(=O)n3c4ccccc4c(=O)c1c23', 1.0),
  ('N#CC(c1nc2ccccc2s1)c1nc(Cl)ncc1Br (stereo not given)', 0.0),
  ('CC12CO[C@@](C)(CC(S(=O)(=O)c3ccccc3)C1)O2 (stereo not given in full)', 0.0),
  ('CC(C)(C)N/N=C(\C(=O)Nc1cccc(Cl)c1)C1C(=O)Nc2ccccc2[S+]1[O-] (stereo not given)', 0.0),
  ('CCN(CC)c1ccc(/C=C/C2=NN(c3cccc(S(=O)(=O)O)c3)C3(C2)C(Cl)C(=O)N3c2nc3ccccc3s2)cc1 (stereo not given)', 0.0),
  ('O=C(NCCCNCCCCNCCCNC(=O)c1cc(-c2ccccc2)nc2ccccc12)c1cc(-c2ccccc2)nc2ccccc12', 0.0),
  ('CCOC(=O)C(CCC(N)=O)(CCC(=O)OC)C(=O)OCC', 0.0),
  ('Fc1cccc(C2SCC3=Nc4ccccc4CN32)c1 (stereo not given)', 0.0),
  ('O=C1c2ccccc2-c2ccc(NC(=O)C3CCCCC3C(=O)O)cc21 (stereo not given)', 0.0),
  ('COC(=O)C1(Cc2ccccc2)Cc2ccccc2C1', 0.0),
  ('CC(C)(C)c1ccc(-c2nnc(-c3cc(C#N)cc(-c4nnc(-c5ccc(C(C)(C)C)cc5)o4)c3)o2)cc1', 0.0),
  ('COc1ccc2c(c1)C(=O)N1CCOC1C2C(=O)O (stereo not given)', 0.0);
